This collection of values is drawn from ChEMBL document CHEMBL1157539.

Here, each record is paired with measured XC50 data.
# System: Plasmodium falciparum
# procedure details: GSK_TCMDC: Inhibition of Plasmodium falciparum 3D7 in whole erythrocytes, using parasite LDH activity as an index of growth.
# Format: functional, organism-based
# condition details: Plasmodium falciparum, 3D7
A number alone suffices; assume nM.

Below are worked cases with known answers.
# molecule, target entity, XC50 (nM)
data = [
    ("O=C(N[C@@H](CC1CCCCC1)C(=O)NC1CCCCC1)c1ccc(O)c(-c2cccc(C(F)(F)F)c2)c1", "Plasmodium falciparum", 747),
    ("CC(Cc1ccc([N+](=O)[O-])cc1)NCC(O)c1cccc(C(F)(F)F)c1 (stereo not given)", "Plasmodium falciparum", 898),
    ("CC1(C)CC(=O)c2c(O)cc(OCc3ccncc3)cc2O1", "Plasmodium falciparum", 1040),
    ("CC(Cc1ccc(C(=O)N2CCN(C(=O)c3ccc(CC(C)NCCc4cccc(Cl)c4)cc3)CC2)cc1)NCCc1cccc(Cl)c1 (stereo not given)", "Plasmodium falciparum", 677),
    ("O=c1cc(NCCCNCc2cccc(C(F)(F)F)c2Cl)[nH]c2ccccc12", "Plasmodium falciparum", 804),
    ("CN(C)CC(=O)Nc1ccc(-c2ccc3ccnc(N)c3c2)cc1", "Plasmodium falciparum", 33.1),
    ("N=C(N)c1ccc(Nc2nccc(Nc3nc(-c4ccccc4)cs3)n2)cc1", "Plasmodium falciparum", 754),
    ("CCCCCN1CCCN(Cc2cccc(NC(=O)c3ccc4ccccc4c3)c2)CC1", "Plasmodium falciparum", 1220),
    ("CC1(C)S(=O)(=O)CC(O)CS1(=O)=O", "Plasmodium falciparum", 467),
]

Would you mind telling me what XC50 value was observed for COc1ccc2ncc(F)c(CCN3CC(O)C(CNCc4nc5c(cc4Cl)OCC(=O)N5)C3)c2n1 (stereo not given) ? 830
